Assay: Equilibrium (intrinsic) solubility of the test article in formulation mixtures, 24h, LC/MS
Conditions: 10% meglumine in normal saline, aqueous with cosolvent or surfactant or cyclodextrin, thermodynamic from solid
property-label: solubility at 24 h (µM)
Give bare numbers, in µM.

Tell me its solubility at 24 h given C=C(NC(=O)C(=C)NC(=O)c1csc(C2=N[C@@H]3c4csc(n4)[C@H]4NC(=O)c5csc(n5)[C@H]([C@](C)(O)[C@@H](C)O)NC(=O)[C@H]5CSC(=N5)/C(=C/C)NC(=O)[C@H]([C@@H](C)O)NC(=O)c5csc(n5)[C@]3(CC2)NC(=O)[C@H](C)NC(=O)C(=C)NC(=O)[C@H](C)NC(=O)[C@H]([C@@H](C)CC)N[C@@H]2C=Cc3c([C@H](C)O)cc(nc3[C@H]2O)C(=O)O[C@@H]4C)n1)C(N)=O as the entry.
200
